system: Torsin-1A-interacting protein 2 (Homo sapiens)
experiment summary: LULL1 binders on small-molecule microarray, primary screen, cell lysate, human LULL1 lysate, 635/667 nm fluorescence (AID 1092);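 also: probe is lysate of COS7 cells overexpressing human LULL1; score merges per-feature 667 nm fluorescence with signal-to-noise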
experimental setup: hLULL1 lysate binding, 635 nm fluorescence, higher = more signal
Recorded composite z-score by entry
Please reply with the value in numeric form only.

entry smiles	system	composite z-score
COCCOC(=O)N1C(=O)[C@@]2(c3cc(C#CCCO)ccc31)[C@H](C(=O)N1CCCCCCC1)[C@H]1C(=O)O[C@H](c3ccccc3)[C@H](c3ccccc3)N1[C@@H]2c1ccc(O)cc1	Torsin-1A-interacting protein 2 (Homo sapiens)	2.91
COC(=O)[C@@]1(Cc2ccccc2CN=[N+]=[N-])N=C(c2ccc(OCCCO)cc2)O[C@H]1c1ccccc1N=[N+]=[N-]	Torsin-1A-interacting protein 2 (Homo sapiens)	2.18

# evaluate next
Query string: GET /values?readout=composite z-score&item= "O=C1O[C@H](c2ccccc2)[C@H](c2ccccc2)N2[C@H]1[C@@H](C(=O)Nc1nc3ccccc3s1)[C@]1(C(=O)Nc3ccc(C#CC4=CCCCC4)cc31)[C@H]2c1ccccc1OCCO"
Result string: 2.35
